System: Mycobacterium tuberculosis
Experiment: Antimycobacterial activity against Mycobacterium tuberculosis H37Rv ATCC 27294 incubated for 7 days by microplate alamar blue assay
Format: functional
Details: H37Rv ATCC 27294, 168 h, time 7 day
Recorded MIC values for a group of compounds are listed next.

compound	experimental.target	recorded.measurement
O=c1nc(N2CCN(CC3CCCCC3)CC2)sc2c([N+](=O)[O-])cc(C(F)(F)F)cc12	Mycobacterium tuberculosis	< 0.016 µg/mL
O=C(NN1CCN(c2nc(=O)c3cc(C(F)(F)F)cc([N+](=O)[O-])c3s2)CC1)c1ccc(C(F)(F)F)cc1	Mycobacterium tuberculosis	0.589 µg/mL
O=c1nc(NN2CCN(Cc3ccc(OC(F)(F)F)cc3)CC2)sc2c([N+](=O)[O-])cc(C(F)(F)F)cc12	Mycobacterium tuberculosis	> 1 µg/mL

Consider CC(c1ccc(OC(F)(F)F)cc1)N(C)N1CCN(c2nc(=O)c3cc(C(F)(F)F)cc([N+](=O)[O-])c3s2)CC1 (stereo not drawn) . Its measured MIC is < 0.016 µg/mL

Consider NNC(=O)c1ccncc1 . Its measured MIC is 0.0366 µg/mL

* * *

Test: Half life in ICR mouse at 25 mg/kg, po measured upto 24 hrs by HPLC analysis
Format: ADME, organism-based
Conditions: in vivo
experimental.readout: half-life

compound	experimental.readout	recorded.measurement
CON=C1CCC(N(C)N2CCN(c3nc(=O)c4cc(C(F)(F)F)cc([N+](=O)[O-])c4s3)CC2)CC1 (centres undefined)	half-life	245 min
CC(c1ccc(OC(F)(F)F)cc1)N(C)N1CCN(c2nc(=O)c3cc(C(F)(F)F)cc([N+](=O)[O-])c3s2)CC1 (centres undefined)	half-life	233 min
O=c1nc(N2CCN(NC3CCCCC3)CC2)sc2c([N+](=O)[O-])cc(C(F)(F)F)cc12	half-life	76.8 min

Read the next record carefully.
Consider CN(c1ccc(OC(F)(F)F)cc1)N1CCN(c2nc(=O)c3cc(C(F)(F)F)cc([N+](=O)[O-])c3s2)CC1 . Its measured half-life is 216 min

* * *

Assay: MRT in ICR mouse at 25 mg/kg, po measured upto 24 hrs by HPLC analysis
Assay type: ADME, organism-based
Conditions: in vivo
experimental.readout: MRT (h)
Hi! Could you send only the number? It should be in h, unit omitted.

Consider CC(c1ccc(OC(F)(F)F)cc1)N(C)N1CCN(c2nc(=O)c3cc(C(F)(F)F)cc([N+](=O)[O-])c3s2)CC1 (centres undefined) . Its measured MRT is 2.66

Consider O=c1nc(N2CCN(NC3CCCCC3)CC2)sc2c([N+](=O)[O-])cc(C(F)(F)F)cc12 . Its measured MRT is 1.47

Consider CON=C1CCC(N(C)N2CCN(c3nc(=O)c4cc(C(F)(F)F)cc([N+](=O)[O-])c4s3)CC2)CC1 (centres undefined) . Its measured MRT is 3.89

Consider CN(c1ccc(OC(F)(F)F)cc1)N1CCN(c2nc(=O)c3cc(C(F)(F)F)cc([N+](=O)[O-])c3s2)CC1 . Its measured MRT is 4.34

* * *

Molecular target: UniProtKB Q12809
Experiment: Inhibition of human ERG expressed in HEK293 cells at 10 uM by whole cell patch clamp method relative to control
Type: cell-based
Details: HEK293 cells expressing hERG
experimental.readout: inhibition at 10 µM (%)
Hi! Could you send only the number? It should be in %, unit omitted.

Use these answered entries as a reference point.
given.smiles	experimental.readout	unit.spec	recorded.measurement
CN(CC1CCCCC1)N1CCN(c2nc(=O)c3cc(C(F)(F)F)cc([N+](=O)[O-])c3s2)CC1	inhibition at 10 µM	%	54.6
O=c1nc(N2CCN(NCC3CCCCC3)CC2)sc2c([N+](=O)[O-])cc(C(F)(F)F)cc12	inhibition at 10 µM	%	64.4
O=c1nc(N2CCN(NC3CCCCC3)CC2)sc2c([N+](=O)[O-])cc(C(F)(F)F)cc12	inhibition at 10 µM	%	20.4

Consider O=c1nc(N2CCN(Nc3ccc(OC(F)(F)F)cc3)CC2)sc2c([N+](=O)[O-])cc(C(F)(F)F)cc12 . Its measured inhibition at 10 µM is 55.5

Consider O=c1nc(N2CCN(/N=C/c3ccc(OC(F)(F)F)cc3)CC2)sc2c([N+](=O)[O-])cc(C(F)(F)F)cc12 . Its measured inhibition at 10 µM is 88.2

Consider O=c1nc(N2CCN(NCCC3CCCCC3)CC2)sc2c([N+](=O)[O-])cc(C(F)(F)F)cc12 . Its measured inhibition at 10 µM is 76.4

* * *

Test system: Mycobacterium tuberculosis
Experiment: Antimycobacterial activity against Mycobacterium tuberculosis H37Rv ATCC 27294 incubated for 7 days by microplate alamar blue assay
Assay type: functional
Details: H37Rv ATCC 27294, 168 h, time 7 day
Recorded MIC values for a group of compounds are listed next.
Hi! Could you send only the number? It should be in µg/mL, unit omitted.

compound	experimental.readout	recorded.measurement
NN1CCN(c2nc(=O)c3cc(C(F)(F)F)cc([N+](=O)[O-])c3s2)CC1	MIC	0.941
CON=C1CCC(CNN2CCN(c3nc(=O)c4cc(C(F)(F)F)cc([N+](=O)[O-])c4s3)CC2)CC1 (stereo not drawn)	MIC	0.057
O=c1nc(N2CCN(NCc3cccnc3)CC2)sc2c([N+](=O)[O-])cc(C(F)(F)F)cc12	MIC	0.228
O=C(NN1CCN(c2nc(=O)c3cc(C(F)(F)F)cc([N+](=O)[O-])c3s2)CC1)C1CCCCC1	MIC	0.473

Consider CCC(CC)CN(CC(CC)CC)N1CCN(c2nc(=O)c3cc(C(F)(F)F)cc([N+](=O)[O-])c3s2)CC1 . Its measured MIC is 0.49

* * *

Biological target: hERG (KCNH2) (Homo sapiens, UniProt Q12809)
Sequence (Q12809 whole entry): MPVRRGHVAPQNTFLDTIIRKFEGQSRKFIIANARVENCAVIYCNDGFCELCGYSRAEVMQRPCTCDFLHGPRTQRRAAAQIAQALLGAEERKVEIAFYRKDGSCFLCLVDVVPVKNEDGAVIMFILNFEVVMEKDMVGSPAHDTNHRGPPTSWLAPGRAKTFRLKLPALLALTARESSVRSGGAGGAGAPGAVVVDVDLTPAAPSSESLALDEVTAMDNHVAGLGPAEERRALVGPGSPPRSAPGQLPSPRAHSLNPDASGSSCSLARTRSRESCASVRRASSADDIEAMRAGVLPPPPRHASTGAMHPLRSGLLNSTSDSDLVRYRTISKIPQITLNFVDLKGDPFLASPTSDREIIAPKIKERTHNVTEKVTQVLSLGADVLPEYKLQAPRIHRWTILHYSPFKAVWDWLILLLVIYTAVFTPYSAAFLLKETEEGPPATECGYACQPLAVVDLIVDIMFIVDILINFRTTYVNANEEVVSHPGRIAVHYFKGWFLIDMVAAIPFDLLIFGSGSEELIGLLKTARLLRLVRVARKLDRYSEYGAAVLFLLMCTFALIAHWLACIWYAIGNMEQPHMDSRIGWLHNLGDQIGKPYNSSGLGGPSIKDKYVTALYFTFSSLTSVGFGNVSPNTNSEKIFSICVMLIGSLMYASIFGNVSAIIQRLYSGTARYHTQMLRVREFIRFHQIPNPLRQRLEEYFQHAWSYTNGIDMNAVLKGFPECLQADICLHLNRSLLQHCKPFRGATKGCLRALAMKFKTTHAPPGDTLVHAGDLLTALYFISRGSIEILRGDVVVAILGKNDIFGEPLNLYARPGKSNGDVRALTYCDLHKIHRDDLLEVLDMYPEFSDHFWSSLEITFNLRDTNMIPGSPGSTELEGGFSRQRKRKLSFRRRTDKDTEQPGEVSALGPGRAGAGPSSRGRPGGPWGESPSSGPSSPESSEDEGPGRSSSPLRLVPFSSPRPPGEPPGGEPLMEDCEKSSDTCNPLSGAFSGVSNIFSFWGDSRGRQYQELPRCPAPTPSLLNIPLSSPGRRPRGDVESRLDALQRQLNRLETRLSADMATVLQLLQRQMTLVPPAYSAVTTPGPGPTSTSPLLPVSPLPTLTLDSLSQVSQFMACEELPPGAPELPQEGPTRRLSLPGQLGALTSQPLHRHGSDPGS
Assay: Inhibition of human ERG expressed in HEK293 cells at 10 uM by whole cell patch clamp method relative to control
Type: cell-based
Conditions: HEK293 cells expressing hERG
experimental.readout: inhibition at 10 µM (%)
Hi! Could you send only the number? It should be in %, unit omitted.

Use these answered entries as a reference point.
compound	inhibition at 10 µM / %
CON=C1CCC(N(C)N2CCN(c3nc(=O)c4cc(C(F)(F)F)cc([N+](=O)[O-])c4s3)CC2)CC1 (centres undefined)	22.7
O=c1nc(N2CCN(NCc3ccc(OC(F)(F)F)cc3)CC2)sc2c([N+](=O)[O-])cc(C(F)(F)F)cc12	71.1
CN(c1ccc(OC(F)(F)F)cc1)N1CCN(c2nc(=O)c3cc(C(F)(F)F)cc([N+](=O)[O-])c3s2)CC1	45.6

Read the next record carefully.
Form field, inhibition at 10 µM with hERG (KCNH2) (Homo sapiens, UniProt Q12809), item CC(c1ccc(OC(F)(F)F)cc1)N(C)N1CCN(c2nc(=O)c3cc(C(F)(F)F)cc([N+](=O)[O-])c3s2)CC1 (centres undefined) : 46.9

* * *

Assay: Cmax in ICR mouse at 25 mg/kg, po measured upto 24 hrs by HPLC analysis
Type: ADME, organism-based
Parameters: route oral, dose 25 mg/kg, time <=24
Conditions: in vivo
Recorded Cmax values for a group of compounds are listed next.
Hi! Could you send only the number? It should be in ng/mL, unit omitted.

compound	Cmax, ng/mL
CN(c1ccc(OC(F)(F)F)cc1)N1CCN(c2nc(=O)c3cc(C(F)(F)F)cc([N+](=O)[O-])c3s2)CC1	1100
CC(c1ccc(OC(F)(F)F)cc1)N(C)N1CCN(c2nc(=O)c3cc(C(F)(F)F)cc([N+](=O)[O-])c3s2)CC1 (centres undefined)	944
CON=C1CCC(N(C)N2CCN(c3nc(=O)c4cc(C(F)(F)F)cc([N+](=O)[O-])c4s3)CC2)CC1 (centres undefined)	5140

Consider O=c1nc(N2CCN(NC3CCCCC3)CC2)sc2c([N+](=O)[O-])cc(C(F)(F)F)cc12 . Its measured Cmax is 1960

* * *

Test: Tmax in ICR mouse at 25 mg/kg, po measured upto 24 hrs by HPLC analysis
Format: ADME, organism-based
Conditions: in vivo
experimental.readout: Tmax (min)
Hi! Could you send only the number? It should be in min, unit omitted.

Use these answered entries as a reference point.
molecule	Tmax [min]
CN(c1ccc(OC(F)(F)F)cc1)N1CCN(c2nc(=O)c3cc(C(F)(F)F)cc([N+](=O)[O-])c3s2)CC1	40
O=c1nc(N2CCN(NC3CCCCC3)CC2)sc2c([N+](=O)[O-])cc(C(F)(F)F)cc12	35
CC(c1ccc(OC(F)(F)F)cc1)N(C)N1CCN(c2nc(=O)c3cc(C(F)(F)F)cc([N+](=O)[O-])c3s2)CC1 (centres undefined)	50

Read the next record carefully.
Consider CON=C1CCC(N(C)N2CCN(c3nc(=O)c4cc(C(F)(F)F)cc([N+](=O)[O-])c4s3)CC2)CC1 (centres undefined) . Its measured Tmax is 30
